Entries and their measured RAM network inhibition follow.
- procedure text: RAM signaling pathway blockade in yeast – S. cerevisiae, Pdr1DBD-CYC8 efflux-inhibited sensitized strain, primary screen (AID 1298);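 further: 0% = DMSO untreated cells without growth and 100% = 10 µM 1-NA-PP1 full growth; higher means more yeast growth rescued from 5-FOA killing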
- measurement conditions: S. cerevisiae cbk1-as DSE1-URA3 strain, 5-FOA growth OD615, 2 d; at 50 µM; stronger effect = higher value
Your answer is read as %, so omit the unit and give the number.

For orientation, consider the following solved cases.
CCOC(=O)N1CCN(Cc2nc3c(c(=O)n(C)c(=O)n3C)n2CCC(C)C)CC1 | 8.2
CCC(C)NC(=O)C1CN(S(=O)(=O)c2ccccc2)CCN1S(=O)(=O)c1ccccc1 (stereo unspecified) | 0.57
O=C(CNC(=O)c1ccco1)OCc1ccc(Cl)cc1 | 0.25
COc1ccc(Cc2nc(-c3ccc(-n4cccc4)cc3)no2)cc1 | 3.16
CCCCOc1ccc(NC(=O)C2CC=CCC2C(=O)O)cc1 (stereo unspecified) | 0.37

Next compound, RAM network inhibition to be filled in.
Field request: RAM network inhibition | item: CC(=O)NC(NC(C)=O)c1ccc(N(C)C)cc1
-0.26
